Each entry below lists one item and its recorded Trimethylated fraction value.
# tgt: NTMT2 (Homo sapiens)
# Construct: DNA encoding human NTMT2 (residues 58–278) was amplified by PCR; SUMO (His8-SUMO of the pET28-MKH8SUMO vector, with TEV site) (N, cleaved yes); made in house; host or cells: Escherichia coli BL21 (DE3)
# assay_notes: MALDI-MS methyltransferase activity assay, NTMT2
# Assay type: biochemical
# experimental_setup: 2 μM NTMT2, 10 μM peptide, 200 μM SAM, 25 mM Tris–HCl pH 7.5, 50 mM KCl, 37 °C, overnight
Respond numerically; units are % and should not be typed.

// solved cases for Trimethylated fraction follow
# substance, unit_spec, val
records = [
    ("DPKRIA [synthetic XPKRIA hexapeptide substrate, X = D]", "%", 0.00),
    ("RPKRIA [synthetic XPKRIA hexapeptide substrate, X = R]", "%", 0.00),
    ("GPKRIA [synthetic XPKRIA hexapeptide substrate, X = G]", "%", 27.94),
    ("WPKRIA [synthetic XPKRIA hexapeptide substrate, X = W]", "%", 0.00),
]

Consider the record given below.
IN: Given the substance NPKRIA [synthetic XPKRIA hexapeptide substrate, X = N] , write its reported Trimethylated fraction.
OUT: 0.00

---

Each entry below lists one item and its recorded Mono-methylated fraction value.
# Test system: NTMT2-N89G mutant
# assay_notes: MALDI-MS methyltransferase activity assay, NTMT2-N89G mutant
# Format: biochemical, human
# experimental_setup: NTMT2-N89G under the same conditions (2 μM enzyme, 10 μM peptide, 200 μM SAM, pH 7.5, 37 °C, overnight)
Respond numerically; units are % and should not be typed.

// solved cases for Mono-methylated fraction follow
# substance, Mono-methylated fraction (%)
measured = [
    ("EPKRIA [synthetic XPKRIA hexapeptide substrate, X = E]", 0.00),
    ("VPKRIA [synthetic XPKRIA hexapeptide substrate, X = V]", 4.18),
]

IN: Fill in Mono-methylated fraction for YPKRIA [synthetic XPKRIA hexapeptide substrate, X = Y] tested with NTMT2-N89G mutant.
OUT: 87.50

IN: Fill in Mono-methylated fraction for MPKRIA [synthetic XPKRIA hexapeptide substrate, X = M] tested with NTMT2-N89G mutant.
OUT: 100.00

---

# Tested on: NTMT1
# assay_notes: MALDI-MS methyltransferase activity assay, NTMT1
# Type: biochemical, human
# experimental_setup: 2 μM NTMT1, 10 μM peptide, 200 μM SAM, 25 mM Tris–HCl pH 7.5, 50 mM KCl, 37 °C, overnight
measure: Trimethylated fraction (%)
Respond numerically; units are % and should not be typed.

// solved cases for Trimethylated fraction follow
# substance, val
measured = [
    ("GPKRIA [synthetic XPKRIA hexapeptide substrate, X = G]", 100.00),
    ("VPKRIA [synthetic XPKRIA hexapeptide substrate, X = V]", 0.00),
]

Consider the record given below.
IN: Given the substance KPKRIA [synthetic XPKRIA hexapeptide substrate, X = K] , write its reported Trimethylated fraction.
OUT: 3.86

---

Each entry below lists one item and its recorded Mono-methylated fraction value.
# tgt: NTMT2 (Homo sapiens, UniProt Q5VVY1)
# Construct: DNA encoding human NTMT2 (residues 58–278) was amplified by PCR; SUMO (His8-SUMO of the pET28-MKH8SUMO vector, with TEV site) (N, cleaved yes); made in house; host or cells: Escherichia coli BL21 (DE3)
# Sequence (Q5VVY1 58-278): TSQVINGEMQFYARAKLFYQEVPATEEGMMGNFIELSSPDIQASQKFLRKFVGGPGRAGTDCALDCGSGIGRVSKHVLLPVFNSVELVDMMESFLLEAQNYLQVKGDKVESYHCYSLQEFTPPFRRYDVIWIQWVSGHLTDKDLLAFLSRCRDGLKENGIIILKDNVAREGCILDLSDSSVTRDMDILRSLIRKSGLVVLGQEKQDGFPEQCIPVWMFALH
# assay_notes: MALDI-MS methyltransferase activity assay, NTMT2
# Type: biochemical
# experimental_setup: 2 μM NTMT2, 10 μM peptide, 200 μM SAM, 25 mM Tris–HCl pH 7.5, 50 mM KCl, 37 °C, overnight
Ends that are not written are not given here.
Respond numerically; units are % and should not be typed.

IN: Given the substance FPKRIA [synthetic XPKRIA hexapeptide substrate, X = F] , write its reported Mono-methylated fraction.
OUT: 50.22

IN: Given the substance TPKRIA [synthetic XPKRIA hexapeptide substrate, X = T] , write its reported Mono-methylated fraction.
OUT: 0.00

IN: Given the substance LPKRIA [synthetic XPKRIA hexapeptide substrate, X = L] , write its reported Mono-methylated fraction.
OUT: 3.16

IN: Given the substance WPKRIA [synthetic XPKRIA hexapeptide substrate, X = W] , write its reported Mono-methylated fraction.
OUT: 36.35

IN: Given the substance VPKRIA [synthetic XPKRIA hexapeptide substrate, X = V] , write its reported Mono-methylated fraction.
OUT: 0.00

IN: Given the substance NPKRIA [synthetic XPKRIA hexapeptide substrate, X = N] , write its reported Mono-methylated fraction.
OUT: 0.00

IN: Given the substance HPKRIA [synthetic XPKRIA hexapeptide substrate, X = H] , write its reported Mono-methylated fraction.
OUT: 39.05

IN: Given the substance APKRIA [synthetic XPKRIA hexapeptide substrate, X = A] , write its reported Mono-methylated fraction.
OUT: 32.17

IN: Given the substance PPKRIA [synthetic XPKRIA hexapeptide substrate, X = P] , write its reported Mono-methylated fraction.
OUT: 38.00

IN: Given the substance QPKRIA [synthetic XPKRIA hexapeptide substrate, X = Q] , write its reported Mono-methylated fraction.
OUT: 0.00

IN: Given the substance KPKRIA [synthetic XPKRIA hexapeptide substrate, X = K] , write its reported Mono-methylated fraction.
OUT: 5.19

IN: Given the substance CPKRIA [synthetic XPKRIA hexapeptide substrate, X = C] , write its reported Mono-methylated fraction.
OUT: 25.20

IN: Given the substance GPKRIA [synthetic XPKRIA hexapeptide substrate, X = G] , write its reported Mono-methylated fraction.
OUT: 15.31

IN: Given the substance RPKRIA [synthetic XPKRIA hexapeptide substrate, X = R] , write its reported Mono-methylated fraction.
OUT: 23.35

IN: Given the substance YPKRIA [synthetic XPKRIA hexapeptide substrate, X = Y] , write its reported Mono-methylated fraction.
OUT: 23.72

IN: Given the substance EPKRIA [synthetic XPKRIA hexapeptide substrate, X = E] , write its reported Mono-methylated fraction.
OUT: 0.00

IN: Given the substance IPKRIA [synthetic XPKRIA hexapeptide substrate, X = I] , write its reported Mono-methylated fraction.
OUT: 0.00

IN: Given the substance DPKRIA [synthetic XPKRIA hexapeptide substrate, X = D] , write its reported Mono-methylated fraction.
OUT: 0.00

IN: Given the substance SPKRIA [SPKRIA] , write its reported Mono-methylated fraction.
OUT: 46.39

IN: Given the substance MPKRIA [synthetic XPKRIA hexapeptide substrate, X = M] , write its reported Mono-methylated fraction.
OUT: 41.45

---

# Test system: NTMT1
# assay_notes: MALDI-MS methyltransferase activity assay, NTMT1
# Assay type: biochemical, human
# experimental_setup: 2 μM NTMT1, 10 μM peptide, 200 μM SAM, 25 mM Tris–HCl pH 7.5, 50 mM KCl, 37 °C, overnight
measure: Di-methylated fraction (%)
Respond numerically; units are % and should not be typed.

// solved cases for Di-methylated fraction follow
# substance, unit_spec, Di-methylated fraction
measured = [
    ("NPKRIA [synthetic XPKRIA hexapeptide substrate, X = N]", "%", 100.00),
    ("PPKRIA [synthetic XPKRIA hexapeptide substrate, X = P]", "%", 100.00),
    ("QPKRIA [synthetic XPKRIA hexapeptide substrate, X = Q]", "%", 100.00),
    ("IPKRIA [synthetic XPKRIA hexapeptide substrate, X = I]", "%", 20.10),
]

Consider the record given below.
IN: Given the substance RPKRIA [synthetic XPKRIA hexapeptide substrate, X = R] , write its reported Di-methylated fraction.
OUT: 98.24

---

# Tested on: NTMT1
# assay_notes: MALDI-MS methyltransferase activity assay, NTMT1
# Type: biochemical, human
# experimental_setup: 2 μM NTMT1, 10 μM peptide, 200 μM SAM, 25 mM Tris–HCl pH 7.5, 50 mM KCl, 37 °C, overnight
measure: Unmethylated fraction (%)
Respond numerically; units are % and should not be typed.

// solved cases for Unmethylated fraction follow
# substance, Unmethylated fraction (%)
records = [
    ("EPKRIA [synthetic XPKRIA hexapeptide substrate, X = E]", 89.30),
    ("FPKRIA [synthetic XPKRIA hexapeptide substrate, X = F]", 0.00),
    ("TPKRIA [synthetic XPKRIA hexapeptide substrate, X = T]", 26.44),
    ("IPKRIA [synthetic XPKRIA hexapeptide substrate, X = I]", 36.56),
    ("YPKRIA [synthetic XPKRIA hexapeptide substrate, X = Y]", 0.00),
    ("WPKRIA [synthetic XPKRIA hexapeptide substrate, X = W]", 15.51),
    ("GPKRIA [synthetic XPKRIA hexapeptide substrate, X = G]", 0.00),
]

IN: Fill in Unmethylated fraction for APKRIA [synthetic XPKRIA hexapeptide substrate, X = A] tested with NTMT1.
OUT: 0.00

Cited source: paper PMC6214909
